test: The drug is tested on WLS-069 corresponding to human gut metagenome with ENA study accession number: PRJEB37062 and ENA sample accession number: ERS12561748 for biotransformation under anaerobic condition. The drug concentrations were measured over 9 timepoints collected between 0 and 24 hours of incubation by liquid-chromatography-coupled mass spectrometry (LC–MS); conditions: 2 µM; also: call rule not given here
REPORTED_METRIC: Bacterial Biotransformation

| COMPOUND | Bacterial Biotransformation |
| --- | --- |
| CCN(CC)CCOCCOC(=O)C1(c2ccccc2)CCCC1.O=C(O)CC(O)(CC(=O)O)C(=O)O [CARBETAPENTANE CITRATE] | Compound metabolized |
| CCOC(=O)[C@H](CCc1ccccc1)N[C@@H](C)C(=O)N1[C@H](C(=O)O)C[C@H]2CCCC[C@@H]21 | Compound metabolized |
| CCN(CC)CCOC(=O)C(Cc1cccc2ccccc12)CC1CCCO1.O=C(O)C(=O)O (configuration not stated) [NAFRONYL OXALATE] | Compound metabolized |
| CN1CCN(C(=O)O[C@H]2c3nccnc3C(=O)N2c2ccc(Cl)cn2)CC1 | Compound NOT metabolized |
| COc1c2occc2cc2ccc(=O)oc12 | Compound metabolized |

Bacterial Biotransformation lookup needed for COc1ccccc1N1CCN(CC(O)COc2cccc3ccccc23)CC1 (configuration not stated) , thanks.
Compound NOT metabolized

What value of Bacterial Biotransformation has been reported for the following compound? O=C(O)COCCN1CCN(C(c2ccccc2)c2ccc(Cl)cc2)CC1 (configuration not stated)
Compound metabolized

Which value of Bacterial Biotransformation has been reported for COc1ccccc1OCC(O)CN1CCN(CC(=O)Nc2c(C)cccc2C)CC1 (configuration not stated) in the records?
Compound NOT metabolized

# lookup: Bacterial Biotransformation of O=C1[C@H](CC[C@H](O)c2ccc(F)cc2)[C@@H](c2ccc(O)cc2)N1c1ccc(F)cc1
Compound metabolized

Using the record for C=CCc1ccccc1OCC(O)CNC(C)C (configuration not stated) , report its Bacterial Biotransformation.
Compound NOT metabolized
